# TEST TARGET: P2X2/3 (Homo sapiens, UniProt P56373+Q9UBL9)
# Sequence (Q9UBL9 1-471): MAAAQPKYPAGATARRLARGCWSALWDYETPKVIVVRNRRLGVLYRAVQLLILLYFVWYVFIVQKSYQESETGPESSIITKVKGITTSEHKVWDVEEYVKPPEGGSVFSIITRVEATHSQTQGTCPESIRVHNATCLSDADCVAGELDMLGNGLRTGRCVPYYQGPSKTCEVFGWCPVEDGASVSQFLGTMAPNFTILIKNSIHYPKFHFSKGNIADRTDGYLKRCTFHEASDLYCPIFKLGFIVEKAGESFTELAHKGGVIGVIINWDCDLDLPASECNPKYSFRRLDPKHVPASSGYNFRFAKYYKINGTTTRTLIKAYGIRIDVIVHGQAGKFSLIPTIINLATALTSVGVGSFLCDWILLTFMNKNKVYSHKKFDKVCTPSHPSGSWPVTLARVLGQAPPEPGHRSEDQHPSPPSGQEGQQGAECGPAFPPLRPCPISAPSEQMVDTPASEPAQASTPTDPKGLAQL
# Sequence (P56373 1-397): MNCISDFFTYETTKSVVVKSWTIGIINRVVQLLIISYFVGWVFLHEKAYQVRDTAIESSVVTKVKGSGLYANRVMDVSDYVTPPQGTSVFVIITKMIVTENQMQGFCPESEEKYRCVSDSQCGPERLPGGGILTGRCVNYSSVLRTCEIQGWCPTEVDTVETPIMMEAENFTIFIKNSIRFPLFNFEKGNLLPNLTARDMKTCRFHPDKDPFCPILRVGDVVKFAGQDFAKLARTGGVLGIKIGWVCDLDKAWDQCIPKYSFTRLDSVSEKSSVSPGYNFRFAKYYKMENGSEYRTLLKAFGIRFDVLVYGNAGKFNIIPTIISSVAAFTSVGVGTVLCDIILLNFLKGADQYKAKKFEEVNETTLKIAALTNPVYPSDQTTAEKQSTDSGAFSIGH
# TEST DETAILS: P2X2/3 FLIPR intracellular calcium assay
# CONDITION CONTEXT: agonist at EC75, species (human or rat) not given
pIC50: −log10 of the molar value.
MEASURED ATTRIBUTE: pIC50

Cc1ccc(-c2cnc3c(N4CCC(C(F)(F)F)CC4)cc(C(=O)N[C@@H](C)c4nnc[nH]4)cn23)s1	5.00 to 6.00
Cc1ncc(CNC(=O)c2cc(-n3nncc3C(F)F)c3ncc(-c4ncc(C)s4)n3c2)cn1	7.00 to 9.00
Cc1ccc(CNC(=O)c2cc(-n3nnnc3C)c3ncc(-c4ccc(C)s4)n3c2)cn1	6.00 to 7.00

pIC50 reading for `CCc1cnnn1-c1cc(C(=O)NCc2cnc(C)nc2)cn2c(-c3ccc(C)s3)cnc12` : 7.00 to 9.00
